Biological target: T1, Factor VIIIa (recombinant FVIII, Kogenate FS, activated with alpha-thrombin) (UniProt P00451 20-2351)
T1 construct: also called FVIIIa; cofactor
T1 sequence (looked up): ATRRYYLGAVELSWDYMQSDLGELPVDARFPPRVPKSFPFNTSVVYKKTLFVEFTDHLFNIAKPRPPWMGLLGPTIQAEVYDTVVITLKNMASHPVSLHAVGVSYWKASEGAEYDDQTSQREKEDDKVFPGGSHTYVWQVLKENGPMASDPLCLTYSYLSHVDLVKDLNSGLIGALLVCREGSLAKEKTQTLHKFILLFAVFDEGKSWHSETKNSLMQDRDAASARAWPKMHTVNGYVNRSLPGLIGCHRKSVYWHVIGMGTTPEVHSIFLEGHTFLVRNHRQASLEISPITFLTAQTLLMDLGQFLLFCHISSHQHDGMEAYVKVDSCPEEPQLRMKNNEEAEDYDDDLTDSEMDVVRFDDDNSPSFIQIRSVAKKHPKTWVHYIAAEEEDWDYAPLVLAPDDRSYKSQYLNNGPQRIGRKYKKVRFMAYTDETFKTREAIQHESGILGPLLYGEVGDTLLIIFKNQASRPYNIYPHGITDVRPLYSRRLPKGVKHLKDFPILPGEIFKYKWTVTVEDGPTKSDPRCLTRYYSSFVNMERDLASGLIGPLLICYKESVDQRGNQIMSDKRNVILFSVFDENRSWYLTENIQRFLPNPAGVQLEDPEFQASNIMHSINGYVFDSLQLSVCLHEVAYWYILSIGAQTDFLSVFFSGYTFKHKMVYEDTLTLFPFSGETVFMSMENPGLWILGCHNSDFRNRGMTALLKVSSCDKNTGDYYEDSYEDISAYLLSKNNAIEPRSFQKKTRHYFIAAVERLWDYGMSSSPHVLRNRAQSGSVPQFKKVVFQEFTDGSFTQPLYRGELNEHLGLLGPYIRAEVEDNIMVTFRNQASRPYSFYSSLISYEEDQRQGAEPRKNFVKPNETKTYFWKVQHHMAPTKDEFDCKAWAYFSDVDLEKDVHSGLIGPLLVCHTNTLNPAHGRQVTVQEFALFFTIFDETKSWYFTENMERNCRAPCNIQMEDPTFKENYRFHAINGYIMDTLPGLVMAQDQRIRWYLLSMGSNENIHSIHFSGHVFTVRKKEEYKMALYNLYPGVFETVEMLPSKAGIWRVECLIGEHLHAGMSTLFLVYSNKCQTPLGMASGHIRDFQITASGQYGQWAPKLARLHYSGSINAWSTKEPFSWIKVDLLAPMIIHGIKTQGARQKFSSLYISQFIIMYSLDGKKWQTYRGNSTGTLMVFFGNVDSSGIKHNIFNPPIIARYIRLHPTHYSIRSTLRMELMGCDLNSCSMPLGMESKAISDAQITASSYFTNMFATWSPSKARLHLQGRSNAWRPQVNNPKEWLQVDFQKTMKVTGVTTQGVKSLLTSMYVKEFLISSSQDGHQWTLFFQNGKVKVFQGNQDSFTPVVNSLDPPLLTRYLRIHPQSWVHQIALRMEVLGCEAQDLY
Assay: same assay; ratio of KD-app of Catalyst Biosciences WT FIXa to KD-app of this FIXa
Quantity: KD-WT/KD-mut

# Binder, Reported Measurement
data = [
    ("FIXa-R318Y/R338E/E410N (enzyme, also called R150Y/R170E/E240N) chain 1: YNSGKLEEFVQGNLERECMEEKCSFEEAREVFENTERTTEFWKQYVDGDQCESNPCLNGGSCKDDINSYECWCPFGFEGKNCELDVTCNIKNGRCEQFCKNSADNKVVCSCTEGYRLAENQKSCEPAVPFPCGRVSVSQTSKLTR chain 2: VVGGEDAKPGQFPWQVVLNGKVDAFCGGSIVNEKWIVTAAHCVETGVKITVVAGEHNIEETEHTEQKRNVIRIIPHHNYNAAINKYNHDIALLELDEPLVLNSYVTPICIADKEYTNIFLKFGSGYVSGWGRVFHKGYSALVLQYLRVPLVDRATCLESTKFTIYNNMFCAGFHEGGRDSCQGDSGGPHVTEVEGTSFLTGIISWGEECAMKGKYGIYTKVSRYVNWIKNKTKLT", 12.4),
    ("FIXa-D104N/K106S/R318Y/R338E/E410N (enzyme) chain 1: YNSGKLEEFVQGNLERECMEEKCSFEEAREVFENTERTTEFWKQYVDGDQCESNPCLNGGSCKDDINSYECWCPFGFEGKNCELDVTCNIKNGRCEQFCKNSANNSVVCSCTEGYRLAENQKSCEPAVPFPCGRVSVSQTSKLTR chain 2: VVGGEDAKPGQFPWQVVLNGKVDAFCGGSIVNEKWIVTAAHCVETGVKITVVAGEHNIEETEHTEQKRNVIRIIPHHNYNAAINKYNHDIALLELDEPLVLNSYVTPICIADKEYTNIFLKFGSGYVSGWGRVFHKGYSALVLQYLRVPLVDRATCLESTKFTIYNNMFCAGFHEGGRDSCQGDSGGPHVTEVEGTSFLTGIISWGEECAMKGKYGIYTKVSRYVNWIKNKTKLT", 7.7),
    ("FIXa-R338E/R403E/E410N (enzyme, also called R170E/R233E/E240N) chain 1: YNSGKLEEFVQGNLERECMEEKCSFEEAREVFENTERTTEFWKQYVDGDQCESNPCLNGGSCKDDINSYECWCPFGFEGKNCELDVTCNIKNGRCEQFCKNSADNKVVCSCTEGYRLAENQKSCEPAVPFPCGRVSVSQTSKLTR chain 2: VVGGEDAKPGQFPWQVVLNGKVDAFCGGSIVNEKWIVTAAHCVETGVKITVVAGEHNIEETEHTEQKRNVIRIIPHHNYNAAINKYNHDIALLELDEPLVLNSYVTPICIADKEYTNIFLKFGSGYVSGWGRVFHKGRSALVLQYLRVPLVDRATCLESTKFTIYNNMFCAGFHEGGRDSCQGDSGGPHVTEVEGTSFLTGIISWGEECAMKGKYGIYTKVSEYVNWIKNKTKLT", 1.7),
    ("FIXa-R318Y/R338E/R403E (enzyme, also called R150Y/R170E/R233E) chain 1: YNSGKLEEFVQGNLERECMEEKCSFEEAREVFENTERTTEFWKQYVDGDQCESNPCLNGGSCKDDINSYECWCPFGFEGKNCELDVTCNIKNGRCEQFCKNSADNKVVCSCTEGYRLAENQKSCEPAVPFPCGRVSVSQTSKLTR chain 2: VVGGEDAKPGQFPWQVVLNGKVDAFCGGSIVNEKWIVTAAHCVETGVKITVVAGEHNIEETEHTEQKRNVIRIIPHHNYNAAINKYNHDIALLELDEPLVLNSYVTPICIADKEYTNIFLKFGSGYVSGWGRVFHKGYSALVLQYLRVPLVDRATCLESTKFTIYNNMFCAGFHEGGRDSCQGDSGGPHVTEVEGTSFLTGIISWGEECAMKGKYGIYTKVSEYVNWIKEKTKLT", 0.3),
]
